Value source: patent US10570179B2

# procedure.details: Solubility determination
# Format: physicochemical
Numbered stars: 1 amine (or outer) side, 2 acyl side, 3 side chain; on linkers, the order of the positions; unused ones are H or OH. Bridge positions count the residues as written; N and C are the ends. Square brackets hold non-standard residues; d marks the D form. Peptide text beside a SMILES is read from it. * marks the point of attachment. Morpholine(3S-CO) = O=C(O)[C@@H]1COCCN1; Phe(3-Me) = Cc1cccc(C[C@H](N)C(=O)O)c1; NH(4-Cl-2-F-phenyl) = Fc1cc(Cl)ccc1N*; Pro(4R-Me) = C[C@H]1CN[C@H](C(=O)O)C1; X1 = O=C([C@@H]1CSCCN1[*:1])[*:2]; Hyp = O=C(O)[C@@H]1C[C@@H](O)CN1; NH(4-Et-phenyl) = CCc1ccc(N*)cc1; aThr = C[C@H](O)[C@H](N)C(=O)O; CO = O=C([*:1])[*:2]
property: μsol (μM)

Given CCc1ccc(NC(=O)N[C@@H](Cc2cccc(C)c2)C(=O)N[C@@H]2C(=O)N3C[C@H](O)C[C@H]3C(=O)N3CCOC[C@H]3C(=O)N[C@@H](C)C(=O)N3C[C@H](C)C[C@H]3C(=O)O[C@H]2C)cc1 [Compound 24] ({NH(4-Et-phenyl)-CO}-[Phe(3-Me)][aThr][Hyp][Morpholine(3S-CO)]A[Pro(4R-Me)]; ester 2-C) , state its recorded μsol (μM).
48.4 ± 0.7 µM

So what does the record say about μsol (μM) for Cc1cccc(C[C@H](NC(=O)Nc2ccc(Cl)cc2F)C(=O)N[C@@H]2C(=O)N3C[C@H](O)C[C@H]3C(=O)N3CCSC[C@H]3C(=O)N[C@@H](C)C(=O)N3C[C@H](C)C[C@H]3C(=O)O[C@H]2C)c1 [Compound 41] ({NH(4-Cl-2-F-phenyl)-CO}-[Phe(3-Me)][aThr][Hyp][X1]A[Pro(4R-Me)]; ester 2-C) ?
2.4 ± .40 µM

----------
# procedure.details: Microsomal metabolic stability
# Type: in vitro ADME, mouse
# test.settings: CD-1, mouse, pH 7.4
Numbered stars: 1 amine (or outer) side, 2 acyl side, 3 side chain; on linkers, the order of the positions; unused ones are H or OH. Bridge positions count the residues as written; N and C are the ends. Square brackets hold non-standard residues; d marks the D form. Peptide text beside a SMILES is read from it. * marks the point of attachment. ξ: configuration not given here. Piperazine(2S-CO,4-Me) = CN1CCN[C@H](C(=O)O)C1; Phe(3,5-Me2) = Cc1cc(C)cc(C[C@H](N)C(=O)O)c1; Phe(3-Me) = Cc1cccc(C[C@H](N)C(=O)O)c1; X4 = O=C1CN([*:1])[C@H](C(=O)[*:2])CN1; NH(4-Cl-2-F-phenyl) = Fc1cc(Cl)ccc1N*; Pro(4R-Me) = C[C@H]1CN[C@H](C(=O)O)C1; ξNMeThr = CNC(C(=O)O)[C@@H](C)O; aThr = C[C@H](O)[C@H](N)C(=O)O; Pip = O=C(O)[C@@H]1CCCCN1; CO = O=C([*:1])[*:2]
Returns one of Criterion met or Criterion not met; Criterion met when Mouse is >= 3 h.

Cc1cc(C)cc(C[C@H](NC(=O)Nc2ccc(Cl)cc2F)C(=O)N[C@@H]2C(=O)N3CCC[C@H]3C(=O)N3CCCC[C@H]3C(=O)N[C@@H](C)C(=O)N3C[C@H](C)C[C@H]3C(=O)O[C@H]2C)c1 [Compound 4] ({NH(4-Cl-2-F-phenyl)-CO}-[Phe(3,5-Me2)][aThr]P[Pip]A[Pro(4R-Me)]; ester 2-C) = Criterion met

Dear colleague, could you confirm whether Cc1cccc(C[C@H](NC(=O)Nc2ccc(Cl)cc2F)C(=O)N[C@@H]2C(=O)N3CCC[C@H]3C(=O)N(C)C([C@@H](C)O)C(=O)N[C@@H](C)C(=O)N3C[C@H](C)C[C@H]3C(=O)O[C@H]2C)c1 (stereo partly drawn) [Compound 5] ({NH(4-Cl-2-F-phenyl)-CO}-[Phe(3-Me)][aThr]P[ξNMeThr]A[Pro(4R-Me)]; ester 2-C) has Mouse at or above 3 h?
Criterion not met

Confirm if Mouse reported for the molecule Cc1cccc(C[C@H](NC(=O)Nc2ccc(Cl)cc2F)C(=O)N[C@@H]2C(=O)N3CCC[C@H]3C(=O)N3CC(=O)NC[C@H]3C(=O)N[C@@H](C)C(=O)N3C[C@H](C)C[C@H]3C(=O)O[C@H]2C)c1 [Compound 20] ({NH(4-Cl-2-F-phenyl)-CO}-[Phe(3-Me)][aThr]P[X4]A[Pro(4R-Me)]; ester 2-C) is 3 h or above.
Criterion met

Tell me whether Mouse is at least 3 h here: Cc1cccc(C[C@H](NC(=O)Nc2ccc(Cl)cc2F)C(=O)N[C@@H]2C(=O)N3CCC[C@H]3C(=O)N3CCN(C)C[C@H]3C(=O)N[C@@H](C)C(=O)N3C[C@H](C)C[C@H]3C(=O)O[C@H]2C)c1 [Compound 11] ({NH(4-Cl-2-F-phenyl)-CO}-[Phe(3-Me)][aThr]P[Piperazine(2S-CO,4-Me)]A[Pro(4R-Me)]; ester 2-C)
Criterion not met

Evaluate Cc1cccc(C[C@H](NC(=O)Nc2ccc3c(c2)OCCO3)C(=O)N[C@H]2COC(=O)[C@@H]3C[C@@H](C)CN3C(=O)[C@H](C)NC(=O)[C@@H]3CCCCN3C(=O)[C@@H]3CCCN3C2=O)c1 [Compound 22] : Mouse at minimum 3 h?
Criterion met

Could you verify whether the entry Cc1cccc(C[C@H](NC(=O)Nc2ccc3c(c2)OCO3)C(=O)N[C@H]2COC(=O)[C@@H]3C[C@@H](C)CN3C(=O)[C@H](C)NC(=O)[C@@H]3CCCCN3C(=O)[C@@H]3CCCN3C2=O)c1 [Compound 23] shows Mouse of no less than 3 h?
Criterion met
